Test: in vivo
Settings: male, Wistar Han, rat, in vivo; day 21; single IM Example 1B 62 mg/kg; read-out: Mean concentration of Example 1B

>  <molecule>
C#C[C@]1(COP(=O)(N[C@@H](Cc2ccccc2)C(=O)OCCCCCCCCCCCCCCCCCCCCCC)Oc2ccccc2)O[C@@H](n2cnc3c(N)nc(F)nc32)C[C@@H]1O (single isomer, unassigned)

>  <concentration at 21 day (ng/mL)>
3.53

$$$$

---

Test: EFdA Rat PK Studies (subcutaneous and intramuscular groups), plasma concentration by LC-MS/MS
Assay type: in vivo, Wistar Han rats
Conditions: male, Wistar Han, rat, plasma, sc, 20 mg/kg, Day 25; SC 20 mg/kg; plasma; read-out: Assayed Concentrations of EFdA, Mean

>  <smiles.entry>
C#C[C@]1(CO)O[C@@H](n2cnc3c(N)nc(F)nc32)C[C@@H]1O

>  <concentration at 25 day / ng/mL>
0.221

$$$$

---

Experiment: in vivo
Details: male, Wistar Han, rat, in vivo; day 35; single IM Example 40A 60 mg/kg; read-out: Mean concentration of Example 40A

>  <molecule>
C#C[C@]1(COP(=O)(N[C@@H](Cc2cc(F)cc(F)c2)C(=O)OCCCCCCCCCCCCCCCCCC)Oc2ccccc2)O[C@@H](n2cnc3c(N)nc(F)nc32)C[C@@H]1O (single isomer, unassigned) [Example 40A]

>  <unit.abbrev>
ng/mL

>  <concentration at 35 day>
12.6

$$$$

---

Assay: EFdA Rat PK Studies (subcutaneous and intramuscular groups), plasma concentration by LC-MS/MS
Type: in vivo, Wistar Han rats
Conditions: male, Wistar Han, rat, plasma, sc, 20 mg/kg, 4 hr; SC 20 mg/kg; plasma; read-out: Assayed Concentrations of EFdA, Mean

>  <smiles.entry>
C#C[C@]1(CO)O[C@@H](n2cnc3c(N)nc(F)nc32)C[C@@H]1O

>  <unit.abbrev>
ng/mL

>  <concentration at 4 h>
639

$$$$

---

Test: in vivo
Conditions: male, Wistar Han, rat, in vivo; day 1; single IM Example 16A 20 mg/kg equivalent of EFdA; read-out: Mean concentration of Example 16A

>  <compound>
C#C[C@]1(COP(=O)(N[C@@H](C)C(=O)OCCCCCCCCCCCCCCCCCCCCCC)Oc2ccccc2)O[C@@H](n2cnc3c(N)nc(F)nc32)C[C@@H]1O (single isomer, unassigned) [Example 16A]

>  <concentration at 1 day [ng/mL]>
3.05

$$$$

---

Assay: in vivo
Details: male, Wistar Han, rat, in vivo; day 7; single IM Example 2B 20 mg/kg; read-out: Mean concentration of Example 2B
experimental.endpoint: concentration at 7 day (ng/mL)

>  <compound>
C#C[C@]1(COP(=O)(N[C@@H](Cc2ccccc2)C(=O)OCCCCCCCCCCCCCCCC)Oc2ccccc2)O[C@@H](n2cnc3c(N)nc(F)nc32)C[C@@H]1O (single isomer, unassigned)

>  <experimental.result>
0.708

$$$$

---

Assay: in vivo
Settings: male, Wistar Han, rat, in vivo; day 1; single IM Example 39A 58 mg/kg; read-out: Mean concentration of Example 39A
experimental.endpoint: concentration at 1 day

>  <compound>
C#C[C@]1(COP(=O)(N[C@@H](Cc2cc(F)cc(F)c2)C(=O)OCCCCCCCCCCCCCCCC)Oc2ccccc2)O[C@@H](n2cnc3c(N)nc(F)nc32)C[C@@H]1O (single isomer, unassigned) [Example 39A]

>  <experimental.endpoint>
concentration at 1 day

>  <experimental.result>
17 ng/mL

$$$$
